Record form. Attribute: kinase still bound, per cent of control. Fill in for each entry.
target: UniProtKB Q15139; test: KINOMEscan competition binding; settings: compound 10.0 µM
Sequence (Q15139 whole entry, looked up): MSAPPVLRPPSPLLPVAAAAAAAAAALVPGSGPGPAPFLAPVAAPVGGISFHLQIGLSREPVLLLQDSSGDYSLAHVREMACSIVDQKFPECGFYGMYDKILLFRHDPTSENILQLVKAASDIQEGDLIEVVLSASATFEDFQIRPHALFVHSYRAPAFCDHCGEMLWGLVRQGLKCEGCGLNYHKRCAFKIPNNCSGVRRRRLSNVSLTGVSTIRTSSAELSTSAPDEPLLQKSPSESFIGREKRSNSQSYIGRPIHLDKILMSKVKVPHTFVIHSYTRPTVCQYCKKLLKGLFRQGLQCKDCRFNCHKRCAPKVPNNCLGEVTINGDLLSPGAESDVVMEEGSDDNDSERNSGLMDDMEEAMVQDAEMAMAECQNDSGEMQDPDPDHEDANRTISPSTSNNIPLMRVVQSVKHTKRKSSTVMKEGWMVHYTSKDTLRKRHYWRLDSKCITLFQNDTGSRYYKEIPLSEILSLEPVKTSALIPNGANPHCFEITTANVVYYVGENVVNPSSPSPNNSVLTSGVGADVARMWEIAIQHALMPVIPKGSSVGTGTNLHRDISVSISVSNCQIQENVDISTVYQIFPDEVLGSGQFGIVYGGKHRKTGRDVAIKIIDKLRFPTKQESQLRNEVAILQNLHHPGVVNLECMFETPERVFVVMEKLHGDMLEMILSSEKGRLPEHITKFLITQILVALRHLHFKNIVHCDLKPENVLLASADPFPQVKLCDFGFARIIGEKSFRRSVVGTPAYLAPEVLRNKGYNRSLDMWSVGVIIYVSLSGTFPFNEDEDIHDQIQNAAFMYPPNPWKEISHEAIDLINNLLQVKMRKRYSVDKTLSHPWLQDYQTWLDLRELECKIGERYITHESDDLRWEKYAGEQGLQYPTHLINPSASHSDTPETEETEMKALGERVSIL
Enter your answer as a number in %; do not include the unit.

Give the reported value of kinase still bound, per cent of control for this record: CCN1CCN(Cc2ccc(NC(=O)c3ccc(C)c(/C=C/c4cnc5[nH]ccc5c4OC)c3)cc2C(F)(F)F)CC1
3.5

Give kinase still bound, per cent of control for COc1cc(N2CCC(C(N)=O)CC2)ccc1Nc1nc(N)c(Cl)c(Nc2ccccc2S(=O)(=O)C(C)C)n1
100

Give me measured kinase still bound, per cent of control, please, for this compound: O=c1[nH]c2ccccc2n1C1CCN(Cc2ccc(-c3nc4cc5[nH]cnc5cc4nc3-c3ccccc3)cc2)CC1
86

Determine from records and report kinase still bound, per cent of control for COc1cc(C)c(Sc2cnc(NC(=O)c3ccc(CNC(C)C(C)C)cc3)s2)cc1C(=O)N1CCN(C(C)=O)CC1 (stereo not drawn)
100

Return kinase still bound, per cent of control for the following compound: CC(=O)c1c(C)c2cnc(Nc3ccc(N4CCNCC4)cn3)nc2n(C2CCCC2)c1=O
0.85

Give the value of kinase still bound, per cent of control reported for the following: CC1=C(C(=O)Nc2cc3cn[nH]c3cc2F)C(c2ccc(C(F)(F)F)cc2)CC(=O)N1 (stereo not drawn)
76

# return recorded kinase still bound, per cent of control for input N#Cc1cc(-c2ccnc(Nc3ccc(-n4cnc(-c5cccnc5)n4)cc3)n2)cc(N2CCOCC2)c1
66

Dear colleague, please send me the reported kinase still bound, per cent of control for COc1cc2ncnc(Nc3cccc(Cl)c3)c2cc1OC when you can.
89

Please look at this compound and report its kinase still bound, per cent of control: CCCS(=O)(=O)Nc1ccc(F)c(C(=O)c2c[nH]c3ncc(Cl)cc23)c1F
31

Tell us which kinase still bound, per cent of control value is on record for COc1ccc(N(C(=O)Oc2cc(C(=O)Nc3cccc(C(F)(F)F)c3)ccc2C)c2ccnc(Nc3ccc(N4CCN(C)CC4)cc3)n2)c(OC)c1
100

# return recorded kinase still bound, per cent of control for entry Cc1cn(-c2cc(C(=O)Nc3ccc(C)c(NC(=O)c4ccno4)c3)cc(C(F)(F)F)c2)cn1
100

Supply kinase still bound, per cent of control value. Item: CCN(CCO)CCCOc1ccc2c(Nc3cc(CC(=O)Nc4cccc(F)c4)[nH]n3)ncnc2c1
72

Return value of kinase still bound, per cent of control for input CCc1nc(-c2cccc(C)c2)c(-c2ccnc(NC(=O)c3ccccc3)c2)s1 , no commentary.
65

Retrieve kinase still bound, per cent of control measured for CCOc1cc(N2CCC(O)CC2)ccc1Nc1ncc2c(n1)N(C)c1ccccc1C(=O)N2C and print it.
100

Identify kinase still bound, per cent of control associated with the compound C=CC(=O)Nc1ccc(C(=O)c2sc(Nc3ccc(N4CCN(C)CC4)cc3OC)nc2N)cc1
39

Give a short answer stating reported kinase still bound, per cent of control for N#C/C(=C1/Nc2ccccc2S1)c1ccnc(NCCc2cccnc2)n1 .
100

Look up and state reported kinase still bound, per cent of control for COc1cc2c(Nc3ccc(NC(=O)c4ccccc4)cc3)ncnc2cc1OCCCN1CCOCC1
99

Consider the compound CNC(=O)Nc1ccc(-c2nc(N3CC4CCC(C3)O4)c3cnn(C4CCC5(CC4)OCCO5)c3n2)cc1 . State its measured kinase still bound, per cent of control.
100
